The reader will find reported Inhibition of binding (%) values listed item by item below.
# test-system: T1, hCMV gH + gL + UL128 + UL130 + UL131A (5-member complex; HEK293T co-transfectant) (hCMV, UniProt P12824 24-743; P16832 31-278; P16837 1-171; P16772 1-214)
# T1 construct: whole, on cells; in the functional rows it stands for the complex on virions or transduced cells of the strain or isolate named in the readout; also called gH/gL/UL128-131A complex; pentameric complex
# assay-summary: cell competition; competitor 15D8-biotin

binder	Inhibition of binding (%)
10P3 (antibody, V domains shown, human IgG) VH: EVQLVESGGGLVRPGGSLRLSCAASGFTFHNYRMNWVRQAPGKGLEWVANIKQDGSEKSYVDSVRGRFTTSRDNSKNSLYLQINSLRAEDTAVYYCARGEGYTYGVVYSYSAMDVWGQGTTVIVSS VL: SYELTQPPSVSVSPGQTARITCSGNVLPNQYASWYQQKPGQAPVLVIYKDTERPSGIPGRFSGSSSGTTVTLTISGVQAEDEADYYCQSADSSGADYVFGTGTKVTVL	0
15D8 (antibody, V domains shown, human IgG; also called 15D8-biotin) VH: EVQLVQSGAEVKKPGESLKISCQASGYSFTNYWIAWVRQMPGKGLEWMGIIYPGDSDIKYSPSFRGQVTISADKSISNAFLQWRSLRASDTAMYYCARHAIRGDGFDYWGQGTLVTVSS VL: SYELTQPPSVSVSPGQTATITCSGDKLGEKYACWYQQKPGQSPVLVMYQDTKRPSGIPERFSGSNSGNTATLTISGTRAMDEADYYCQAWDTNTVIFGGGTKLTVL	100
4N10 (antibody, V domains shown, human IgG; also called 4N10-biotin) VH: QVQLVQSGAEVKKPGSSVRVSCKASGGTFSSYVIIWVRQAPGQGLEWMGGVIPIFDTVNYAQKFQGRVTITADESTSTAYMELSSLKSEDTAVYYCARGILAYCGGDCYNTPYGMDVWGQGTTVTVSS VL: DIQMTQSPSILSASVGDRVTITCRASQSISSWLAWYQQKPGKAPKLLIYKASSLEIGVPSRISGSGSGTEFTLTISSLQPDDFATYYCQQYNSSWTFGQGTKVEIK	0
10F7 (antibody, V domains shown, human IgG; also called 10F7-biotin) VH: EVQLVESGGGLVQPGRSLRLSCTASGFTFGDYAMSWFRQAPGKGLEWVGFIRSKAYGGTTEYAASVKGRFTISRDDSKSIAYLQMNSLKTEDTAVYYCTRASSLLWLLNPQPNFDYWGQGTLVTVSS VL: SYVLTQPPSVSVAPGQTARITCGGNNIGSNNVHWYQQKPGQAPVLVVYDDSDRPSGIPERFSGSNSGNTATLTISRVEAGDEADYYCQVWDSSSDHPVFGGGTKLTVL	0
